- Study Target: recombinant ADAM8 (Mus musculus, UniProt Q05910)
- Sequence (Q05910 17-826): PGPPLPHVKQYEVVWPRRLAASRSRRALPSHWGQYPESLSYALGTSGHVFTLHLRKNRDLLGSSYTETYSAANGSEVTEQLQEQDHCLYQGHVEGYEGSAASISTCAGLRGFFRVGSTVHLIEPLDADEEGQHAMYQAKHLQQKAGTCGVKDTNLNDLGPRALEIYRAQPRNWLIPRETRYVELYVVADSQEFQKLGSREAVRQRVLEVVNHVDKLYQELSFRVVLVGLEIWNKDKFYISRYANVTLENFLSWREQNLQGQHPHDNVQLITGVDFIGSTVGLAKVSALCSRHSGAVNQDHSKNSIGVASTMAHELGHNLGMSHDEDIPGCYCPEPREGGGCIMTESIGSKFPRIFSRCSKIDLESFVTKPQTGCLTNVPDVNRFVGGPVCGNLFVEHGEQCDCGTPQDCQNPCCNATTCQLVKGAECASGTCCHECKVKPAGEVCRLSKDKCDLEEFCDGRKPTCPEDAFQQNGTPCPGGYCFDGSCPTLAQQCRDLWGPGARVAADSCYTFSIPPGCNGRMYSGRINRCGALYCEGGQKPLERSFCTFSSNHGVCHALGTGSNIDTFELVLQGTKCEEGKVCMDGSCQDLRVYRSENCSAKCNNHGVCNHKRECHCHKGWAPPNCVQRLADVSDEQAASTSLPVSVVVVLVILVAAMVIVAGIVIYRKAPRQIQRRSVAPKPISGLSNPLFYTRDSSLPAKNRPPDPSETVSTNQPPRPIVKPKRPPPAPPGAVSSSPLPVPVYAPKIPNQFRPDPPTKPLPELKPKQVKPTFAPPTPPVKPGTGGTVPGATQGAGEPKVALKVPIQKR
- Test Details: Fluorescence assay of purified recombinant ADAM8 with fluorogenic CD23 peptide substrate
- Format: biochemical
- Experimental Conditions: FIG. 1A; CD23 as substrate; read-out: IC50 for the inhibition of ADAM8
pIC50: −log10 of the molar value.
Property Name: pIC50

Input: So what's the measured pIC50 for this one? CNC(=O)[C@H](Cc1ccccc1)NC(=O)[C@H](CC(C)C)[C@H](CSc1cccs1)C(=O)NO [BB-94, batimastat, reference compound]
Output: ~7.30
